Value source: patent US6054435A

Tested on: Escherichia coli DC-2
Listed here: items and their measured MIC.

These recorded examples may help you get a feel for the data.
- compound: "CCOC(=O)c1cncc(-c2ccc(C#CCO[C@]3(C)C[C@@H](C)C(=O)[C@H](C)[C@H]4NC(=O)O[C@]4(C)[C@@H](CC)OC(=O)[C@H](C)C(=O)[C@H](C)[C@H]3O[C@@H]3O[C@H](C)C[C@H](N(C)C)[C@H]3O)s2)c1"
  MIC: "> 100 µg/mL"
- compound: "CC[C@H]1OC(=O)[C@H](C)[C@@H](O[C@H]2C[C@@](C)(OC)[C@@H](O)[C@H](C)O2)[C@H](C)[C@@H](O[C@@H]2O[C@H](C)C[C@H](N(C)C)[C@H]2O)[C@](C)(O)C[C@@H](C)C(=O)[C@H](C)[C@@H](O)[C@]1(C)O [Ery. A, Erythromycin A, reference compound]"
  MIC: "> 100 µg/mL"
- compound: "CC[C@H]1OC(=O)[C@H](C)C(=O)[C@H](C)[C@@H](O[C@@H]2O[C@H](C)C[C@H](N(C)C)[C@H]2O)[C@](C)(OCC#Cc2ccc(-c3cc(Cl)cc(Cl)c3)s2)C[C@@H](C)C(=O)[C@H](C)[C@H]2NC(=O)O[C@@]21C"
  MIC: "> 100 µg/mL"

Here is another compound to look at.
Query: Request body: readout MIC, system Escherichia coli DC-2, query `CC[C@H]1OC(=O)[C@H](C)C(=O)[C@H](C)[C@@H](O[C@@H]2O[C@H](C)C[C@H](N(C)C)[C@H]2O)[C@](C)(OC/C=C/c2cnc(-c3cnccn3)s2)C[C@@H](C)C(=O)[C@H](C)[C@H]2NC(=O)O[C@@]21C` . Return the value.
Response: 100 µg/mL

====

Reported MIC for target or system Staphylococcus aureus A-5278, by entry.
Kindly answer with a numeric value in µg/mL, unit omitted.

Query: Dear colleague, I am looking for the recorded MIC of the following compound: `CC[C@H]1OC(=O)[C@H](C)C(=O)[C@H](C)[C@@H](O[C@@H]2O[C@H](C)C[C@H](N(C)C)[C@H]2O)[C@](C)(OCC#Cc2ccc(-c3ccsc3)s2)C[C@@H](C)C(=O)[C@H](C)[C@H]2NC(=O)O[C@@]21C`
Response: 100

Query: Dear colleague, I am looking for the recorded MIC of the following compound: `CC[C@H]1OC(=O)[C@H](C)C(=O)[C@H](C)[C@@H](O[C@@H]2O[C@H](C)C[C@H](N(C)C)[C@H]2O)[C@](C)(OC/C=C/c2ccc(-c3cccc(F)c3)s2)C[C@@H](C)C(=O)[C@H](C)[C@H]2NC(=O)O[C@@]21C`
Response: 25

====

Test system: Streptococcus pyogenes PIU 2548
Listed here: items and their measured MIC.
Kindly answer with a numeric value in µg/mL, unit omitted.

- chemical.structure: "CC[C@H]1OC(=O)[C@H](C)C(=O)[C@H](C)[C@@H](O[C@@H]2O[C@H](C)C[C@H](N(C)C)[C@H]2O)[C@](C)(OC/C=C/c2cnc(-c3cncs3)s2)C[C@@H](C)C(=O)[C@H](C)[C@H]2NC(=O)O[C@@]21C"
  unit.annotation: "µg/mL"
  MIC: 0.2

Query: Request body: readout MIC, system Streptococcus pyogenes PIU 2548, query `CC[C@H]1OC(=O)[C@H](C)C(=O)[C@H](C)[C@@H](O[C@@H]2O[C@H](C)C[C@H](N(C)C)[C@H]2O)[C@](C)(OC/C=C/c2ccc(-c3ccco3)s2)C[C@@H](C)C(=O)[C@H](C)[C@H]2NC(=O)O[C@@]21C` . Return the value.
Response: 0.2

====

Listed here: items and their measured MIC.
Test system: Staphylococcus aureus A-5278

- compound: "CC[C@H]1OC(=O)[C@H](C)C(=O)[C@H](C)[C@@H](O[C@@H]2O[C@H](C)C[C@H](N(C)C)[C@H]2O)[C@](C)(OCC#Cc2ccc(-c3ccccn3)s2)C[C@@H](C)C(=O)[C@H](C)[C@H]2N(N)C(=O)O[C@]12C [Example 36]"
  MIC: "> 100 µg/mL"

Query: Dear colleague, I am looking for the recorded MIC of the following compound: CC[C@H]1OC(=O)[C@H](C)C(=O)[C@H](C)[C@@H](O[C@@H]2O[C@H](C)C[C@H](N(C)C)[C@H]2O)[C@](C)(OCC#Cc2ccc(-c3nccs3)s2)C[C@@H](C)C(=O)[C@H](C)[C@H]2NC(=O)O[C@@]21C [Example 28]
Response: > 100 µg/mL

Query: Dear colleague, I am looking for the recorded MIC of the following compound: CC[C@H]1OC(=O)[C@H](C)C(=O)[C@H](C)[C@@H](O[C@@H]2O[C@H](C)C[C@H](N(C)C)[C@H]2O)[C@](C)(OCC#Cc2ccc(-c3cscn3)s2)C[C@@H](C)C(=O)[C@H](C)[C@H]2NC(=O)O[C@@]21C [Example 30]
Response: > 100 µg/mL

Query: Dear colleague, I am looking for the recorded MIC of the following compound: CC[C@H]1OC(=O)[C@H](C)C(=O)[C@H](C)[C@@H](O[C@@H]2O[C@H](C)C[C@H](N(C)C)[C@H]2O)[C@](C)(OC/C=C/c2ccc(-c3ccc(Cl)c(Cl)c3)s2)C[C@@H](C)C(=O)[C@H](C)[C@H]2NC(=O)O[C@@]21C [Example 71]
Response: 12.5 µg/mL

====

Reported MIC for target or system Escherichia coli DC-2, by entry.

These recorded examples may help you get a feel for the data.
- chemical.structure: "CC[C@H]1OC(=O)[C@H](C)C(=O)[C@H](C)[C@@H](O[C@@H]2O[C@H](C)C[C@H](N(C)C)[C@H]2O)[C@](C)(OCC#Cc2ccc(-c3cccs3)s2)C[C@@H](C)C(=O)[C@H](C)[C@H]2NC(=O)O[C@@]21C"
  observed.measurement: "> 100 µg/mL"
- chemical.structure: "CC[C@H]1OC(=O)[C@H](C)C(=O)[C@H](C)[C@@H](O[C@@H]2O[C@H](C)C[C@H](N(C)C)[C@H]2O)[C@](C)(OC/C=C/c2cnc(-c3cncnc3)s2)C[C@@H](C)C(=O)[C@H](C)[C@H]2NC(=O)O[C@@]21C"
  observed.measurement: "50 µg/mL"
- chemical.structure: "CC[C@H]1OC(=O)[C@H](C)C(=O)[C@H](C)[C@@H](O[C@@H]2O[C@H](C)C[C@H](N(C)C)[C@H]2O)[C@](C)(OC/C=C/c2ccc(-c3cccnc3)s2)C[C@@H](C)C(=O)[C@H](C)[C@H]2NC(=O)O[C@@]21C"
  observed.measurement: "> 100 µg/mL"

Here is another compound to look at.
Query: Request body: readout MIC, system Escherichia coli DC-2, query `CC[C@H]1OC(=O)[C@H](C)C(=O)[C@H](C)[C@@H](O[C@@H]2O[C@H](C)C[C@H](N(C)C)[C@H]2O)[C@](C)(OC/C=C/c2cncc(-c3cnc4ccccc4c3)c2)C[C@@H](C)C(=O)[C@H](C)[C@H]2NC(=O)O[C@@]21C` . Return the value.
Response: 50 µg/mL

====

System: Micrococcus luteus ATCC 9341
measurement.name: MIC (µg/mL)
Kindly answer with a numeric value in µg/mL, unit omitted.

These recorded examples may help you get a feel for the data.
- compound: "CC[C@H]1OC(=O)[C@H](C)C(=O)[C@H](C)[C@@H](O[C@@H]2O[C@H](C)C[C@H](N(C)C)[C@H]2O)[C@](C)(OCC#Cc2ccc(-c3ccco3)s2)C[C@@H](C)C(=O)[C@H](C)[C@H]2NC(=O)O[C@@]21C [Example 23]"
  MIC (µg/mL): 0.01
- compound: "CC[C@H]1OC(=O)[C@H](C)C(=O)[C@H](C)[C@@H](O[C@@H]2O[C@H](C)C[C@H](N(C)C)[C@H]2O)[C@](C)(OC/C=C/c2cnc(-c3cccs3)s2)C[C@@H](C)C(=O)[C@H](C)[C@H]2NC(=O)O[C@@]21C [Example 57]"
  MIC (µg/mL): 0.02
- compound: "CC[C@H]1OC(=O)[C@H](C)C(=O)[C@H](C)[C@@H](O[C@@H]2O[C@H](C)C[C@H](N(C)C)[C@H]2O)[C@](C)(OC/C=C/c2cncc(-c3cncs3)c2)C[C@@H](C)C(=O)[C@H](C)[C@H]2NC(=O)O[C@@]21C [Example 52]"
  MIC (µg/mL): 0.01

Here is another compound to look at.
Query: Request body: readout MIC, system Micrococcus luteus ATCC 9341, query CC[C@H]1OC(=O)[C@H](C)C(=O)[C@H](C)[C@@H](O[C@@H]2O[C@H](C)C[C@H](N(C)C)[C@H]2O)[C@](C)(OC/C=C/c2nc(-c3cccs3)cs2)C[C@@H](C)C(=O)[C@H](C)[C@H]2NC(=O)O[C@@]21C [Example 67] . Return the value.
Response: 0.02
